Molecular target: T1, Rat RGMa-His (rat) (UniProt D4A188)
T1 sequence: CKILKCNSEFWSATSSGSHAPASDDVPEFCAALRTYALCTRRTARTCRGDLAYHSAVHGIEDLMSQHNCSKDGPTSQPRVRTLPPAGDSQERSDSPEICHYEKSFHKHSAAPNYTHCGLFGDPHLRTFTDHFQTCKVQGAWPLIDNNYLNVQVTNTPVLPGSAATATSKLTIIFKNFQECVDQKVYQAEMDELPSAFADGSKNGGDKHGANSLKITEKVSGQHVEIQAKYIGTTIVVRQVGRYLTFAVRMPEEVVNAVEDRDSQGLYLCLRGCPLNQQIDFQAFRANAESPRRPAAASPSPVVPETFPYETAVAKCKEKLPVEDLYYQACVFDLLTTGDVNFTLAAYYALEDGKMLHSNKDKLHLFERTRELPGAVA
Assay: Affinity KD (nM); (BIAcore per Example 4)
measurement name: pKd
Note: pKd values are expressed as the negative base-10 logarithm of concentration in M.

RGMA-h5F9pJP302/pJP303 hIgG1/K mut (antibody, V domains shown, Tested as IgG; also called h5F9.AM11; H5F9AM.11) VH: EVQLVESGGGLVQPGGSLRLSCAASGFTFSNYGMNWVRQAPGKGLEWVSMIYYDSSEKHYADSVKGRFTISRDNSKNTLYLQMNSLRAEDTAVYYCAKGTTPDYWGQGTMVTVSS VL: DVVLTQSPLSLPVTLGQPASISCRSSQSLEDSDGGTFLEWFQQRPGQSPRLLIYDVSSRFSGVPDRFSGSGSGTDFTLKISRVEAEDVGVYYCFQATHDPLSFGQGTKLEIK : 10.13

Consider now this further binder.
Query block: Give the measured pKd of RGMA-h5F9pJP297/pJP299 hIgG1/K mut (antibody, V domains shown, Tested as IgG; also called h5F9.AM9; H5F9AM.9) VH: EVQLVESGGGVVQPGRSLRLSCAASGFTFSNYGMNWVRQAPGKGLEWVAMIYYDSSEKHYADSVKGRFTISRDNSKNTLYLQMNSLRAEDTAVYYCARGTTPDYWGQGTMVTVSS VL: DVVLTQSPLSLPVTLGQPASISCRSSQSLADSDGDTFLHWFQQRPGQSPRLLIYAVSHRFSGVPDRFSGSGSGTDFTLKISRVEAEDVGVYYCFQATHDPVTFGQGTKLEIK .
Result block: 9.51

Cited source: patent US20130330343A1
